- target.system: SARS-CoV spike protein on recombinant CHO K1 cells (SARS-CoV, UniProt P59594 14-1255)
- assay.summary: FACS on CHO K1 cells
Flag rule - EC50 less than 100 pM flags Y; the remaining entries get N.

Record 10B8 VHH-Fc (Fc fusion) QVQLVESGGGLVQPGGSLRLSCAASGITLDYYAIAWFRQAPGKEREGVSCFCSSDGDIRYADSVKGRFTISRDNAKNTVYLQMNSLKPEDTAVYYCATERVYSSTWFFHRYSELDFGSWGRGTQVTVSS : is its EC50 strictly below 100 pM?
N

Record 9B2 VHH-Fc (Fc fusion) QVQLVESGGGLVQPGGSLRLSCAASGFTLDNYAIGWFRQAPGKEREGVSCISSSDGDTQYADSVKGRFTISRDNAKNTVYLQMNSLKPEDTAVYYCAVEKVYARSWFFHLCSELDFGSWGQGTQVTVSS : is its EC50 strictly below 100 pM?
N

Record 7A9 VHH-Fc (Fc fusion) QVQLVESGGGLVQAGGSLRLSCSASGGTASRSAMGWFRQAPGKEREFVAGISRRNSGSTYVADSYEDSVKGRFTISRDNAKNTIYLQMNSLKPEDTAVYYCAAEPTLGWYVPRRSVEYEYWGQGTQVTVSS : is its EC50 strictly below 100 pM?
Y

Record 19E10 VHH-Fc (Fc fusion) QVQLVESGGGLVQPGGSLRLSCVASGSTISINSMGWYRQAPGKAREMVATITNDGPIKYADPVKGRFTISRDNPKNTVYLQMNSLKPEDTAVYYCVADRAYWLAGEWEYWGQGTQVTVSS : is its EC50 strictly below 100 pM?
Y

Record 11F8 VHH-Fc (Fc fusion) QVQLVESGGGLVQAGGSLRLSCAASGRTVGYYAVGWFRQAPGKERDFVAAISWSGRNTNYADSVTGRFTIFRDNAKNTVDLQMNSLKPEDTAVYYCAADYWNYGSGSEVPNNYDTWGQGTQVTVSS : is its EC50 strictly below 100 pM?
Y

***
Record 13C8 VHH-Fc (Fc fusion) QVQLVESGGGLVQAGGSLRLSCAASGRTVNKYMTGWFRQTPGKEREFVASIDWSSTTTHYANSVKGRFTISRDKVKNTVYLQMNGLKPEDTAVYYCAAHQDSSYGYTILPIDYDSWGQGTQVTVSS : is its EC50 strictly below 100 pM?
N

Record 8E9 VHH-Fc (Fc fusion) QVQLVESGGGLVEAGGSLRLSCVASGSSSSINAMGWYRQAPGKQRELVASISHDGETKYANSVKGRFTISRGNAKNTIYLQMNSLKPEDTAVYYCVGDVAWVVVAGEYDYWGQGTQVTVSS : is its EC50 strictly below 100 pM?
N

Record 15H7 VHH-Fc (Fc fusion) QVQLVESGGRLVQAGGSLRLSCAAPGRTFRNLTLGWFRQAPGKEREFVASTSWPDDEMTYYTDSVKGRFTISRDNAKNTVYLQMNSLKPEDTAVYYCAAASWSGRSTLSYDYDYWGQGTQVTVST : is its EC50 strictly below 100 pM?
N
